assay: PK profile of HBI-2375 in plasma, brain and CSF in SD rats; format: in vivo; conditions: both sexes, rat; SD rats, single PO 40 mg/kg, plasma, mean of male and female
measurement.label: AUC(0-t) (ng·h/mL)
Your answer is read as ng·h/mL, so omit the unit and give the number.

Recorded result, Cc1c(F)c(N)cc(C(=O)Nc2cc(-n3cc(C(=O)N4CCN(C)CC4)nn3)c(F)cc2N2C[C@@H](C)N(C)[C@@H](C)C2)c1Cl , AUC(0-t): 2670

###

assay: Liver S9 stability assay; type: in vitro ADME, dog; conditions: Dog liver S9, 1 μM, 5 mM GSH, 37° C.
% Remaining after 60 min incubation overview
Answer format: number, then unit.

Example entries and their recorded answers appear below.
smiles.representation: C[C@@H]1CN(c2ncc(-c3cc(Nc4ncnc(Cl)c4N)c(N4CCN(C)[C@@H](C)C4)cc3F)cn2)C[C@H](C)O1
measurement.label: % Remaining after 60 min incubation
result: 112%
//
smiles.representation: C[C@H]1CN(c2cc(F)c(-c3cnc(N4CCOCC4)nc3)cc2Nc2ncnc(Cl)c2N)CCN1C
measurement.label: % Remaining after 60 min incubation
result: 78%
//
smiles.representation: CCN(CC)C(=O)c1cn(-c2cc(NC(=O)c3cc(N)c(F)c(C)c3Cl)c(N3C[C@@H](C)N(C)[C@@H](C)C3)cc2F)nn1
measurement.label: % Remaining after 60 min incubation
result: 87.3%

Could you now look at the following compound, please?
Recorded result, Cc1c(F)c(N)cc(C(=O)Nc2cc(-n3cc(C(=O)N4CCN(C)CC4)nn3)c(F)cc2N2C[C@@H](C)N(C)[C@@H](C)C2)c1Cl , % Remaining after 60 min incubation: 92.5%

###

assay: PK profile of HBI-2375 in plasma and brain in C57BL/6J mice; assay type: in vivo; settings: mouse; C57BL/6J mice, single PO 80 mg/kg, brain, female
measurement.label: Tmax
Answer format: number, then unit.

Recorded result, Cc1c(F)c(N)cc(C(=O)Nc2cc(-n3cc(C(=O)N4CCN(C)CC4)nn3)c(F)cc2N2C[C@@H](C)N(C)[C@@H](C)C2)c1Cl [HYBI-084] , Tmax: 4 h

###

assay: Dog PK (oral); assay type: in vivo, Beagle dogs; conditions: Beagle, plasma, 1.5 mg/kg, 1.5 mpk
AUC(0-t) overview
Your answer is read as µM·h, so omit the unit and give the number.

smiles.representation: Cc1c(F)c(N)cc(C(=O)Nc2cc(-n3cc(C(=O)N4CCN(C)CC4)nn3)c(F)cc2N2C[C@@H](C)N(C)[C@@H](C)C2)c1Cl
AUC(0-t) (µM·h): 0.0466

Could you now look at the following compound, please?
Recorded result, C[C@@H]1CN(c2ncc(-c3cc(Nc4ncnc(Cl)c4N)c(N4CCN(C)[C@@H](C)C4)cc3F)cn2)C[C@H](C)O1 , AUC(0-t): 5.28

###

test: PK profile of HBI-2375 in plasma and brain in C57BL/6J mice; assay type: in vivo; conditions: male, C57BL/6J, mouse, brain, po, 80 mg/kg, mice, repeat PO 80 mg/kg, male; read-out: AUClast Ratio Brain/Plasma
measurement.label: Kp

Recorded result, Cc1c(F)c(N)cc(C(=O)Nc2cc(-n3cc(C(=O)N4CCN(C)CC4)nn3)c(F)cc2N2C[C@@H](C)N(C)[C@@H](C)C2)c1Cl , Kp: 0.536

###

molecular target: PRMT5 (Homo sapiens, UniProt O14744)
Sequence (O14744 whole entry, species assumed): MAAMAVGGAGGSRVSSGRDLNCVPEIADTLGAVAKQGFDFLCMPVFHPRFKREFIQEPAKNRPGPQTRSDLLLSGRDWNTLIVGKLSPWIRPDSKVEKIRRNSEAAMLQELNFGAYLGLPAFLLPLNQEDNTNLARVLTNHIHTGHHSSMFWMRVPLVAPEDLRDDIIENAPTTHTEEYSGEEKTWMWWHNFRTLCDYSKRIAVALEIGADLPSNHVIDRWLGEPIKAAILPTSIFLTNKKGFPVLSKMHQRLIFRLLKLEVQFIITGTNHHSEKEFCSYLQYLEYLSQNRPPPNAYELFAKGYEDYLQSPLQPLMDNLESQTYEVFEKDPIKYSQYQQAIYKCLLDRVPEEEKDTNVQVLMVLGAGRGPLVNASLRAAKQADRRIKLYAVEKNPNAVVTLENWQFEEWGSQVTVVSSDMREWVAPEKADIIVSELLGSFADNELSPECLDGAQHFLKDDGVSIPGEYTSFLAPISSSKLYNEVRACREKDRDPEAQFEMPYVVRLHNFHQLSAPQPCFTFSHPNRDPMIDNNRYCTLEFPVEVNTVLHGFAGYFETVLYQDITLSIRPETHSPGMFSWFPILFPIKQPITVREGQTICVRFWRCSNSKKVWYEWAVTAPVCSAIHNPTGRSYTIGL
Sequence (Q9BQA1 whole entry partner, species assumed): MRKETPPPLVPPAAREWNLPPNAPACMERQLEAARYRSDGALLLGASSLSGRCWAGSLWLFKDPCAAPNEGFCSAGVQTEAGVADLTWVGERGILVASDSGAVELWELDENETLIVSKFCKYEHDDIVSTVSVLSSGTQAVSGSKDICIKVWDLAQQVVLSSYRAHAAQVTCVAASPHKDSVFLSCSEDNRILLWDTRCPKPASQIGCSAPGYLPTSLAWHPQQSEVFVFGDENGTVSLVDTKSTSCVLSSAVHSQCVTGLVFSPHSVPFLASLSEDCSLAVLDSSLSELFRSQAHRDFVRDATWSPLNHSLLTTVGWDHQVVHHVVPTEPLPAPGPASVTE
pIC50: −log10 of the molar value.
measurement.label: pIC50

Recorded result, Cc1c(F)c(N)cc(C(=O)Nc2cc(-n3cc(C(=O)N4CCN(C)CC4)nn3)c(F)cc2N2C[C@@H](C)N(C)[C@@H](C)C2)c1Cl , pIC50: < 6.00

###

test: PK profile of HBI-2375 in plasma and brain in C57BL/6J mice; format: in vivo; details: male, C57BL/6J, mouse, brain, po, 40 mg/kg, mice, single PO 40 mg/kg, male; read-out: AUClast Ratio Brain/Plasma
measurement.label: Kp
Write no unit; give the number alone.

Recorded result, Cc1c(F)c(N)cc(C(=O)Nc2cc(-n3cc(C(=O)N4CCN(C)CC4)nn3)c(F)cc2N2C[C@@H](C)N(C)[C@@H](C)C2)c1Cl , Kp: 0.283

###

experiment: PK profile of HBI-2375 in plasma and brain in C57BL/6J mice; assay type: in vivo; conditions: male, C57BL/6J, mouse, plasma, po, 40 mg/kg, C57BL/6J mice, single PO 40 mg/kg
measurement.label: AUC(0-t) (µg·h/mL)
Your answer is read as µg·h/mL, so omit the unit and give the number.

Recorded result, Cc1c(F)c(N)cc(C(=O)Nc2cc(-n3cc(C(=O)N4CCN(C)CC4)nn3)c(F)cc2N2C[C@@H](C)N(C)[C@@H](C)C2)c1Cl , AUC(0-t): 6.64

###

assay: PK profile of HBI-2375 in plasma and brain in C57BL/6J mice; assay type: in vivo; conditions: mouse; C57BL/6J mice, 7-day repeat PO 80 mg/kg, brain, female
measurement.label: Cmax at 7 day (ng/g)
Your answer is read as ng/g, so omit the unit and give the number.

Recorded result, Cc1c(F)c(N)cc(C(=O)Nc2cc(-n3cc(C(=O)N4CCN(C)CC4)nn3)c(F)cc2N2C[C@@H](C)N(C)[C@@H](C)C2)c1Cl [HYBI-084] , Cmax at 7 day: 892

###

assay: PK profile of HBI-2375 in plasma, brain and CSF in SD rats; assay type: in vivo; details: both sexes, rat; SD rats, single PO 40 mg/kg, plasma, mean of male and female
measurement.label: Cmax
Answer format: number, then unit.

Recorded result, Cc1c(F)c(N)cc(C(=O)Nc2cc(-n3cc(C(=O)N4CCN(C)CC4)nn3)c(F)cc2N2C[C@@H](C)N(C)[C@@H](C)C2)c1Cl [HYBI-084] , Cmax: 739 ng/mL

###

Accuracy % (Day 7) overview
experiment: Compound formulation stability assay; type: physicochemical; conditions: 10 mg/mL in 10% DMSO/10% solutol HS 15/80% water, 2-8° C., Day 7
Your answer is read as %, so omit the unit and give the number.

Example entries and their recorded answers appear below.
smiles.representation: Cc1c(F)c(N)cc(C(=O)Nc2cc(-n3cc(C(=O)N4CCN(C)CC4)nn3)c(F)cc2N2C[C@@H](C)N(C)[C@@H](C)C2)c1Cl
Accuracy % (Day 7), %: 91.5
//
smiles.representation: CCN(CC)C(=O)c1cn(-c2cc(NC(=O)c3cc(N)c(F)c(C)c3Cl)c(N3C[C@@H](C)N(C)[C@@H](C)C3)cc2F)nn1
Accuracy % (Day 7), %: 98.6
//
smiles.representation: C[C@@H]1CN(c2ncc(-c3cc(Nc4ncnc(Cl)c4N)c(N4CCN(C)[C@@H](C)C4)cc3F)cn2)C[C@H](C)O1
Accuracy % (Day 7), %: 91.5

Could you now look at the following compound, please?
Recorded result, C[C@H]1CN(c2cc(F)c(-c3cnc(N4CCOCC4)nc3)cc2Nc2ncnc(Cl)c2N)CCN1C , Accuracy % (Day 7): 95.5

###

target: POLQPolymerase (Homo sapiens)
Sequence (O75417 whole entry): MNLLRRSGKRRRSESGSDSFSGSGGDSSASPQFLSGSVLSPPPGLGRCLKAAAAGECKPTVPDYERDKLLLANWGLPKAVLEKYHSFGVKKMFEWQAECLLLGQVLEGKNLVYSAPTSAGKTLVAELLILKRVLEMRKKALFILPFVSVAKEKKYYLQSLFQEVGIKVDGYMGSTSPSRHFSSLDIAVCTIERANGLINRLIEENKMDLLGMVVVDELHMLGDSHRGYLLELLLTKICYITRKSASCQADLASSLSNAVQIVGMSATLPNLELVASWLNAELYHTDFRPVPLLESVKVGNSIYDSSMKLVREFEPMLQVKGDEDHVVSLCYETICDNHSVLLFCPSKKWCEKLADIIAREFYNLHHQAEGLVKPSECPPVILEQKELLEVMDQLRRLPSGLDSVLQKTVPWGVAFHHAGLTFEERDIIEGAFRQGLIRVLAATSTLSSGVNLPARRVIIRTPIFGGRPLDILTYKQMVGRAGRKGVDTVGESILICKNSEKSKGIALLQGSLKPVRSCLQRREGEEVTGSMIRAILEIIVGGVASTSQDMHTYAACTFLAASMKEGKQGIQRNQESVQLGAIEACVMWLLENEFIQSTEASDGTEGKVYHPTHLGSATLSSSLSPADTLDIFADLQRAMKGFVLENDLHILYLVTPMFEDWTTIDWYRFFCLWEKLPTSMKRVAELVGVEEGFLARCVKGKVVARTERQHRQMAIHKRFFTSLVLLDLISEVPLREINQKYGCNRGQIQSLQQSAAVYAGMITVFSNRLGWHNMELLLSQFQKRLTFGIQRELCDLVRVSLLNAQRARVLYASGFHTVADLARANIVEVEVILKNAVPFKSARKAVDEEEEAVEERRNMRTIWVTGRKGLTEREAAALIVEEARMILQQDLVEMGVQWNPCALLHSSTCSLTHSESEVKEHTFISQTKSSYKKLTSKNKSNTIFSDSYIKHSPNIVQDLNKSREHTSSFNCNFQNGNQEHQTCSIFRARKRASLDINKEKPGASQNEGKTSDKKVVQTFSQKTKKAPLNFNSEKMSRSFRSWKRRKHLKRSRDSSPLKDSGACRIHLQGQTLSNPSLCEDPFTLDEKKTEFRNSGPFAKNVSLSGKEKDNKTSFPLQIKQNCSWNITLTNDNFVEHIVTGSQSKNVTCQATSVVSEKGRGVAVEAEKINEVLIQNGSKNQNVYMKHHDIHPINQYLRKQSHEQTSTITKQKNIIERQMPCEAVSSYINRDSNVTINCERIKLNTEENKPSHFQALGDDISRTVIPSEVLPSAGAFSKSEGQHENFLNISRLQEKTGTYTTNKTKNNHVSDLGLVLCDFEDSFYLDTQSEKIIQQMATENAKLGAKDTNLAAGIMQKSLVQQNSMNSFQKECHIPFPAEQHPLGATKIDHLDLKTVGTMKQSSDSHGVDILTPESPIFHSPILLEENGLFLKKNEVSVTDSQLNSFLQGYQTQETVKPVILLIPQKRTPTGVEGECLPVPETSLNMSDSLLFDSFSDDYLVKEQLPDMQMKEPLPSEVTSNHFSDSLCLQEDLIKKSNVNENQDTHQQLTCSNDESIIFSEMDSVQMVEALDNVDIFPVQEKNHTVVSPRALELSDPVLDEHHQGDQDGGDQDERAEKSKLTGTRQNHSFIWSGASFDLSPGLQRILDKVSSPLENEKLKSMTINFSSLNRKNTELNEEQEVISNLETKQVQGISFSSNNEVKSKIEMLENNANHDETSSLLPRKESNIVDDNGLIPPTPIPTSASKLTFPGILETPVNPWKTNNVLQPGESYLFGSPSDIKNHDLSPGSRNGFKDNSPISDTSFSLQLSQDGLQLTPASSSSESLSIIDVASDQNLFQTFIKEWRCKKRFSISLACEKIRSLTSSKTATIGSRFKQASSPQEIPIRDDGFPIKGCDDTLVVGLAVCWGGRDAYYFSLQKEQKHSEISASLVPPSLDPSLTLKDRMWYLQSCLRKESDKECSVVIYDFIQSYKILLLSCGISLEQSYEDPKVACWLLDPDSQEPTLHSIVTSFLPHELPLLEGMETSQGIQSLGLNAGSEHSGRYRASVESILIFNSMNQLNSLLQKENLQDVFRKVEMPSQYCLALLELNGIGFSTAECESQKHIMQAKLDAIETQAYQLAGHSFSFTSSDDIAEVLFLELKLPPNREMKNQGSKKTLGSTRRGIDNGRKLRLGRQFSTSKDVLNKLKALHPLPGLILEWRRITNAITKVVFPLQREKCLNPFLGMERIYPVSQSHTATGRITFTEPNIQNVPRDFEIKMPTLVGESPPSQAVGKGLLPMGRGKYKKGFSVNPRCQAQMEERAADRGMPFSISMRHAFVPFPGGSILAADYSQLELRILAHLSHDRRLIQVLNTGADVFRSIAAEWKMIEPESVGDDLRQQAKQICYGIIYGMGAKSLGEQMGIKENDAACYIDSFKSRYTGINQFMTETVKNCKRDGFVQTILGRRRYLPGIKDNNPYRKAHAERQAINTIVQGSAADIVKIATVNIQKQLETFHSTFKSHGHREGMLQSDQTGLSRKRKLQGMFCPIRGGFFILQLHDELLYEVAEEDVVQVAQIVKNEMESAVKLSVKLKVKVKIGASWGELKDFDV
pIC50: −log10 of the molar value.
measurement.label: pIC50

Fill in: POLQPolymerase (Homo sapiens) pIC50 for Cc1c(F)c(N)cc(C(=O)Nc2cc(-n3cc(C(=O)N4CCN(C)CC4)nn3)c(F)cc2N2C[C@@H](C)N(C)[C@@H](C)C2)c1Cl = < 6.00

###

test: PK profile of HBI-2375 in plasma and brain in C57BL/6J mice; format: in vivo; details: both sexes, mouse; C57BL/6J mice, 7-day repeat PO 80 mg/kg, plasma, mean
measurement.label: Cmax at 7 day
Answer format: number, then unit.

Recorded result, Cc1c(F)c(N)cc(C(=O)Nc2cc(-n3cc(C(=O)N4CCN(C)CC4)nn3)c(F)cc2N2C[C@@H](C)N(C)[C@@H](C)C2)c1Cl , Cmax at 7 day: 2530 ng/mL

###

half-life overview
assay: Mouse PK (oral); assay type: in vivo, C57/B16 mice; settings: C57/B16, plasma, 30 mg/kg, 30 mpk

Example entries and their recorded answers appear below.
smiles.representation: C[C@H]1CN(c2cc(F)c(-c3cnc(N4CCOCC4)nc3)cc2Nc2ncnc(Cl)c2N)CCN1C
half-life: 2.7 h
//
smiles.representation: CCN(CC)C(=O)c1cn(-c2cc(NC(=O)c3cc(N)c(F)c(C)c3Cl)c(N3C[C@@H](C)N(C)[C@@H](C)C3)cc2F)nn1
half-life: 2 h
//
smiles.representation: Cc1c(F)c(N)cc(C(=O)Nc2cc(-n3cc(C(=O)N4CCN(C)CC4)nn3)c(F)cc2N2C[C@@H](C)N(C)[C@@H](C)C2)c1Cl
half-life: 3.5 h

Recorded result, C[C@@H]1CN(c2ncc(-c3cc(Nc4ncnc(Cl)c4N)c(N4CCN(C)[C@@H](C)C4)cc3F)cn2)C[C@H](C)O1 , half-life: 13.3 h
